Test system: primary human T-cells
Assay name: Proliferation assay after 5 days (CellTiter-Glo, CD3 stimulation; PBS counter screen)
Format: cell-based
Conditions: Homo sapiens, T-cell, 120 h, CD3 stimulation, 5 days; normalized to reference compound A1 as stimulator control = 100%, DMSO neutral control; read-out: Emax proliferation (% activation)
Listed below: Emax values for each entry.
Measured metric: Emax (%)

* CN1CCN(c2nnc(-c3cc4c(cc3F)S(=O)(=O)C[C@H](N)C(=O)N4Cc3ccc(Cl)cc3)o2)CC1 | 101
* COCCN1CC(c2nnc(-c3cc4c(cc3F)S(=O)(=O)C[C@H](N)C(=O)N4Cc3ccc(Cl)cc3)o2)CC(F)(F)C1 (stereo partly shown) | 112
* CC(C)(c1nnc(-c2cc3c(cc2F)S(=O)(=O)C[C@H](N)C(=O)N3Cc2ccc(Cl)cc2)o1)N1CCCC1 | 99
* N[C@H]1CS(=O)(=O)c2ccc(-c3nnc(N4CCC(F)(F)CC4)o3)cc2N(Cc2ccc(Cl)cc2)C1=O | 87

---

Tested on: primary human T-cells
Assay name: Proliferation assay after 5 days (CellTiter-Glo, CD3 stimulation; PBS counter screen)
Type: cell-based
Conditions: Homo sapiens, T-cell, 120 h, primary human T-cells, CD3 stimulation, CellTiter-Glo after 5 days; EC50 of fitted sigmoidal curve; read-out: Tcell Proliferation CD3 EC50
pEC50: −log10 of the molar value.
Kindly return Condition met if reported pEC50 is no lower than 6; return Condition not met if it is lower.

* CC(C)(C)c1nnc(-c2cc3c(cc2F)S(=O)(=O)C[C@H](N)C(=O)N3Cc2ccc(S(C)(=O)=O)cc2F)o1 [Example 240] | Condition not met
* CC(C)(C)c1nnc(-c2cc3c(cc2F)S(=O)(=O)C[C@H](N)C(=O)N3Cc2ccc(Oc3ccccc3)cc2)o1 [Example 233] | Condition met
* N[C@H]1CS(=O)(=O)c2cc(F)c(-c3nnc(NC4CC4)o3)cc2N(Cc2ccc(Cl)cc2)C1=O [Example 481] | Condition not met
* CCC(=O)N[C@H]1CS(=O)(=O)c2cc(F)c(-c3nnc(C(C)(C)C)o3)cc2N(Cc2ccc(Cl)cc2)C1=O [Example 259] | Condition met
* CC(C)(C)c1nnc(-c2cc3c(cc2F)S(=O)(=O)C[C@H](N)C(=O)N3Cc2cncc(Cc3ccc(Cl)cc3)c2)o1 [Example 252] | Condition not met
* CC(=O)N1CCN(c2nnc(-c3cc4c(cc3F)S(=O)(=O)C[C@H](N)C(=O)N4Cc3ccc(Cl)cc3)o2)CC1 [Example 471] | Condition not met

---

Tested on: primary human T-cells
Assay name: Proliferation assay after 5 days (CellTiter-Glo, CD3 stimulation; PBS counter screen)
Type: cell-based
Conditions: Homo sapiens, T-cell, 120 h, CD3 stimulation, 5 days; normalized to reference compound A1 as stimulator control = 100%, DMSO neutral control; read-out: Emax proliferation (% activation)
List of Emax values.
Measured metric: Emax (%)

- CC(C)(C)c1nnc(-c2cc3c(cc2N)S(=O)(=O)C[C@H](N)C(=O)N3Cc2ccc(Cl)cc2)o1: 108
- N[C@H]1CS(=O)(=O)c2cc(F)c(-c3nnc(NC45CC(C4)C5)o3)cc2N(Cc2ccc(Cl)cc2)C1=O: 92
- N[C@H]1CS(=O)(=O)c2cc(F)c(-c3nnc(CC(F)F)o3)cc2N(Cc2ccc(Cl)cc2)C1=O: 71
- CC(C)(C)c1nnc(-c2ccc3c(c2)N(Cc2ccc(OC4CCCCC4)cc2)C(=O)[C@@H](N)CS3(=O)=O)o1: 130
- N[C@H]1CS(=O)(=O)c2cc(F)c(-c3nnc(C4CN(C5CC5)CC(F)(F)C4)o3)cc2N(Cc2ccc(Cl)cc2)C1=O (stereo partly drawn): 121
- N[C@H]1CS(=O)(=O)c2cc(F)c(-c3noc(C(N)(C4CCOCC4)C(F)(F)F)n3)cc2N(Cc2ccc(Cl)cc2)C1=O (stereo partly drawn): 143
- N[C@H]1CS(=O)(=O)c2cc(F)c(-c3nnc(C4(CO)CC4)o3)cc2N(Cc2ccc(Cl)cc2)C1=O: 77
- CC(C)(C)c1nnc(-c2ccc3c(c2)N(Cc2ccc(Oc4ccc(F)cc4)cc2)C(=O)[C@@H](N)CS3(=O)=O)o1: 138
- COC(=O)NC(C(F)(F)F)C(C)(C)c1nnc(-c2cc3c(cc2F)S(=O)(=O)C[C@H](N)C(=O)N3Cc2ccc(Cl)cc2)o1 (stereo partly drawn): 90
- COC(C)(c1nnc(-c2ccc3c(c2)N(Cc2ccc(Cl)cc2)C(=O)[C@@H](N)CS3(=O)=O)o1)C(F)(F)F (stereo partly drawn): 118
- CC(C)c1nnc(-c2cc3c(cc2F)S(=O)(=O)C[C@H](N)C(=O)N3Cc2ccc(Cl)cc2)o1: 191
- COC(=O)N1CCC(c2nc(-c3cc4c(cc3F)S(=O)(=O)C[C@H](N)C(=O)N4Cc3ccc(OC4CCCC4)cc3)no2)C1 (stereo partly drawn): 141
- CC(C)(C)c1nnc(-c2cc3c(cc2O)S(=O)(=O)C[C@H](N)C(=O)N3Cc2ccc(Cl)cc2)o1: 61
- CN(C)CC(C)(C)c1nnc(-c2cc3c(cc2F)S(=O)(=O)C[C@H](N)C(=O)N3Cc2ccc(Cl)cc2)o1: 90
- N[C@H]1CS(=O)(=O)c2cc(F)c(-c3nnc(N4CC5COCC(C4)C5(F)F)o3)cc2N(Cc2ccc(Cl)cc2)C1=O: 95
- N[C@H]1CS(=O)(=O)c2cc(F)c(-c3nnc(NC4CCCN(CC(F)(F)F)C4)o3)cc2N(Cc2ccc(Cl)cc2)C1=O (stereo partly drawn): 88
- COC(=O)N1CCC(n2nnc(-c3cc4c(cc3F)S(=O)(=O)C[C@H](N)C(=O)N4Cc3ccc(Cl)cc3)n2)C1 (stereo partly drawn): 109
- CN(C)C(=O)c1nc(-c2cc3c(cc2F)S(=O)(=O)C[C@H](N)C(=O)N3Cc2ccc(OC(F)(F)C(F)F)cc2)no1: 100
- N[C@H]1CS(=O)(=O)c2cc(F)c(-c3nnc(C4CC(F)(F)C4)o3)cc2N(Cc2ccc(Cl)cc2)C1=O: 278
- CS(=O)(=O)N1CC2CC(c3nnc(-c4cc5c(cc4F)S(=O)(=O)C[C@H](N)C(=O)N5Cc4ccc(Cl)cc4)o3)(C2)C1: 93
- CC(C)(CN)c1nnc(-c2cc3c(cc2F)S(=O)(=O)C[C@H](N)C(=O)N3Cc2ccc(Cl)cc2)o1: 97
- CC(=O)NCCCCCCCCCCCOc1ccc(CN2C(=O)[C@@H](N)CS(=O)(=O)c3cc(F)c(-c4nnc(C(C)(C)C)o4)cc32)cc1: 108
- COc1ccc(CN2C(=O)[C@@H](N)CS(=O)(=O)c3cc(F)c(-c4nnc(C(C)(C)C)o4)cc32)cc1: 119
- CC1(C)CNCC(c2nc(-c3cc4c(cc3F)S(=O)(=O)C[C@H](N)C(=O)N4Cc3ccc(Cl)cc3)no2)C1 (stereo partly drawn): 76
- N[C@H]1CS(=O)(=O)c2cc(F)c(-c3nnc(C4CCCC(F)(F)C4)o3)cc2N(Cc2ccc(OC(F)(F)F)cc2)C1=O (stereo partly drawn): 282
- CCn1ccc(-c2cc3c(cc2F)S(=O)(=O)C[C@H](N)C(=O)N3Cc2ccc(Cl)cc2)n1: 52
- CN1CCC(n2nnc(-c3cc4c(cc3F)S(=O)(=O)C[C@H](N)C(=O)N4Cc3ccc(Cl)cc3)n2)C1 (stereo partly drawn): 84

---

System: primary human T-cells
Assay name: Proliferation assay after 5 days (CellTiter-Glo, CD3 stimulation; PBS counter screen)
Assay type: cell-based
Conditions: Homo sapiens, T-cell, 120 h, CD3 stimulation, 5 days; normalized to reference compound A1 as stimulator control = 100%, DMSO neutral control; read-out: Emax proliferation (% activation)
Measured metric: Emax (%)

- N[C@H]1CS(=O)(=O)c2cc(F)c(-c3nnc(C4CCC4(F)F)o3)cc2N(Cc2ccc(Cl)cc2)C1=O (stereo partly drawn): 185
- CN(C)c1nnc(-c2cc3c(cc2F)S(=O)(=O)C[C@H](N)C(=O)N3Cc2ccc(Cl)cc2)o1: 100
- N[C@H]1CS(=O)(=O)c2cc(F)c(-c3noc(C4(C(F)(F)F)CC4)n3)cc2N(Cc2ccc(Cl)cc2)C1=O: 140
- N[C@H]1CS(=O)(=O)c2cc(F)c(-c3nnc(C(=O)N4CCCC(F)(F)C4)o3)cc2N(Cc2ccc(Cl)cc2)C1=O: 100
- N[C@H]1CS(=O)(=O)c2cc(F)c(-c3nnc(C4CCCC4(F)F)o3)cc2N(Cc2ccc(Cl)cc2)C1=O (stereo partly drawn): 173
- N[C@H]1CS(=O)(=O)c2cc(F)c(-c3nnc(NC45CC(Cl)(C4)C5)o3)cc2N(Cc2ccc(Cl)cc2)C1=O: 97
- CN(C)Cc1nc(-c2cc3c(cc2F)S(=O)(=O)C[C@H](N)C(=O)N3Cc2ccc(Cl)cc2)no1: 96
- N[C@H]1CS(=O)(=O)c2cc(F)c(-c3nnc(C4CCC(F)(F)C4)o3)cc2N(Cc2ccc(Cl)cc2)C1=O (stereo partly drawn): 161
- N[C@H]1CS(=O)(=O)c2ccc(-c3nnc(N4CCOCC4)o3)cc2N(Cc2ccc(Cl)cc2)C1=O: 109
- CC1(c2nc(-c3cc4c(cc3F)[S+]([O-])C[C@H](N)C(=O)N4Cc3ccc(Cl)cc3)no2)CC[N+]([O-])(CC(F)(F)F)CC1 (stereo partly drawn): 61
- CC(C)(C)c1nnc(-c2cc3c(cc2F)S(=O)(=O)C[C@H](N)C(=O)N3Cc2ccc(OC3CCCC3)cc2)o1: 116
- COC(=O)N1CCC2CC2(c2nnc(-c3cc4c(cc3F)S(=O)(=O)C[C@H](N)C(=O)N4Cc3ccc(Cl)cc3)o2)C1 (stereo partly drawn): 105
- CN1CC(n2nnc(-c3cc4c(cc3F)S(=O)(=O)C[C@H](N)C(=O)N4Cc3ccc(Cl)cc3)n2)CC(F)(F)C1 (stereo partly drawn): 127
- CCN1CCC(C)(c2nc(-c3cc4c(cc3F)S(=O)(=O)C[C@H](N)C(=O)N4Cc3ccc(Cl)cc3)no2)CC1: 79
- NC1CN(c2nnc(-c3cc4c(cc3F)S(=O)(=O)C[C@H](N)C(=O)N4Cc3ccc(Cl)cc3)o2)CCC1(F)F (stereo partly drawn): 102
- CC1(Nc2nnc(-c3cc4c(cc3F)S(=O)(=O)C[C@H](N)C(=O)N4Cc3ccc(Cl)cc3)o2)CC(F)(F)C1: 106
- CN1CCCC(F)(c2nnc(-c3ccc4c(c3)N(Cc3ccc(Cl)cc3)C(=O)[C@@H](N)CS4(=O)=O)o2)C1 (stereo partly drawn): 112
- CCc1nnc(-c2cc3c(cc2F)S(=O)(=O)C[C@H](N)C(=O)N3Cc2ccc(Cl)cc2)o1: 124
- CC#CCOc1ccc(CN2C(=O)[C@@H](N)CS(=O)(=O)c3ccc(-c4nnc(C(C)(C)C)o4)cc32)cc1: 128
- N[C@H]1CS(=O)(=O)c2cc(F)c(-c3nnc(CCC(F)(F)F)o3)cc2N(Cc2ccc(Cl)cc2)C1=O: 165
- CC(C)(N)c1nnc(-c2cc3c(cc2F)S(=O)(=O)C[C@H](N)C(=O)N3Cc2ccc(Cl)cc2)o1: 171
- COC(C#N)c1nnc(-c2ccc3c(c2)N(Cc2ccc(Cl)cc2)C(=O)[C@@H](N)CS3(=O)=O)o1 (stereo partly drawn): 31
- CCCC(=O)N[C@H]1CS(=O)(=O)c2cc(F)c(-c3nnc(C(C)(C)C)o3)cc2N(Cc2ccc(Cl)cc2)C1=O: 115
- CC1(c2nc(-c3cc4c(cc3F)S(=O)(=O)C[C@H](N)C(=O)N4Cc3ccc(Cl)cc3)no2)CCN(CC(F)(F)F)CC1: 202
- CC1CN(Cc2nnc(-c3cc4c(cc3F)SC[C@H](N)C(=O)N4Cc3ccc(Cl)cc3)o2)C1: 74
- CN1CC(c2nnc(-c3ccc4c(c3)N(Cc3ccc(Cl)cc3)C(=O)[C@@H](N)CS4(=O)=O)o2)CC(F)(F)C1 (stereo partly drawn): 106
- CS(=O)(=O)N1CC2CC2(c2nnc(-c3cc4c(cc3F)S(=O)(=O)C[C@H](N)C(=O)N4Cc3ccc(Cl)cc3)o2)C1 (stereo partly drawn): 107
